- Tested on: UACC-257
- procedure details: Antiproliferative activity against human UACC-257 cells assessed as cell growth inhibition at 10 uM incubated for 48 hrs by SRB assay relative to control
- Format: functional
- measurement conditions: read-out: GI
Each entry below carries its recorded inhibition of growth at 10 µM.
Form entry: value (%) — number only.

// worked examples, inhibition of growth at 10 µM included
# structure string, unit abbrev, inhibition of growth at 10 µM
rows = [
    ("Cc1nc2c(cnn2-c2ccccc2)c(=O)n1-c1ccc(NC(=O)c2ccc(F)cc2)cc1", "%", 68.2),
    ("Cc1nc2c(cnn2-c2ccccc2)c(=O)n1-c1ccc(NC(=O)c2ccc([N+](=O)[O-])cc2)cc1", "%", 50.8),
    ("Cc1nc2c(cnn2-c2ccccc2)c(=O)n1-c1ccc(NC(=O)c2ccc(Cl)cc2)cc1", "%", 53.9),
    ("CC(=O)Nc1ccc(-n2c(C)nc3c(cnn3-c3ccccc3)c2=O)cc1", "%", 41.7),
    ("Cc1nc2c(cnn2-c2ccccc2)c(=O)n1-c1ccc(/N=C2\\C(=O)Nc3ccccc32)cc1", "%", 29.3),
]

State its inhibition of growth at 10 µM for this compound: Cc1nc2c(cnn2-c2ccccc2)c(=O)n1-c1ccc(NC(=O)c2ccccc2)cc1
46.9

Assign inhibition of growth at 10 µM to the following record: Cc1ccc(C(=O)Nc2ccc(-n3c(C)nc4c(cnn4-c4ccccc4)c3=O)cc2)cc1
58

State its inhibition of growth at 10 µM for this compound: Cc1nc2c(cnn2-c2ccccc2)c(=O)n1-c1ccc(N)cc1
34.3

Specify reported inhibition of growth at 10 µM for the compound shown: COc1ccc(/C=C/C(=O)c2ccc(-n3c(C)nc4c(cnn4-c4ccccc4)c3=O)cc2)cc1
25.4
